Read-out: Interleukin-1 alpha (IL1a), IL1A (gene 3552)
test.details: BSK_LPS_IL1a: BioMAP Diversity Plus: LPS Assay for Interleukin-1 alpha (IL1a) Biomarker Activity (AID 2283080)
assay.context: primary human HUVEC with PBMC; actives raise or lower the signal
Active and inactive are the calls of the source. The calls were made as follows: active = hit-call score of the fitted dose curve at least 0.9, where 1 is the maximum; inactive = score below 0.9.
// one of active, inactive, no free text

Worked examples follow.
compound	label
CC12CC1(C)C(=O)N(c1cc(Cl)cc(Cl)c1)C2=O (stereo not drawn)	inactive
COC[C@H](C)N(C(=O)CCl)c1c(C)csc1C	inactive
CCOP(=S)(OCC)Oc1ccc(S(C)=O)cc1 (stereo not drawn)	inactive
O=[N+]([O-])c1ccc(O)c([N+](=O)[O-])c1	inactive
CC(C)(c1ccccc1)c1ccc(O)c(C(C)(C)c2ccccc2)c1	active

What classification did O=c1[nH]c(=O)[nH]c(=O)[nH]1 end up with in this test?
inactive

What classification did CCCCCCCCc1ccc(O)cc1 end up with in this test?
active

What classification did CC(C)(OO)c1ccccc1 end up with in this test?
inactive

----------
test.details: ATG_Oct_MLP_CIS: Attagene CIS-FACTORIAL HepG2 Assay for human Octamer-Binding Transcription Factor (Oct) (AID 2282993)
assay.context: HepG2 Attagene cis-factorial Oct reporter, mRNA; actives raise or lower the signal
Calls of active or inactive are those of the source. How the source made its calls: active means hit-call score of the fitted dose curve at least 0.9, where 1 is the maximum; inactive means score below 0.9.
// one of active, inactive, no free text

Worked examples follow.
compound	label
Fc1ccc(C2(Cn3cncn3)OC2c2ccccc2Cl)cc1 (stereo not given)	inactive
CN(C)P(=O)(N(C)C)N(C)C	inactive
CC1(C)Cc2cccc(O)c2O1	inactive

What classification did c1ccc(N=NNc2ccccc2)cc1 end up with in this test?
active

What classification did CCOC(=O)CP(=O)(OCC)OCC end up with in this test?
inactive

What classification did CC(C#N)CCC#N (stereo not given) end up with in this test?
inactive

What classification did Nc1ccc(-c2ccc(N)c(Cl)c2)cc1Cl end up with in this test?
active

What classification did Nc1ncc([N+](=O)[O-])s1 end up with in this test?
inactive

What classification did COc1cc(OC)nc(NC(=O)NS(=O)(=O)c2ncccc2C(=O)N(C)C)n1 end up with in this test?
inactive

What classification did CC(=O)C(Cl)C(=O)N(C)C (stereo not given) end up with in this test?
inactive

What classification did CC(C)c1cccc(C(C)C)c1O end up with in this test?
inactive

What classification did CCOC(=O)Nc1cccc(OC(=O)Nc2ccccc2)c1 end up with in this test?
inactive

What classification did O=C(Nc1ccc2[nH]ccc2c1)c1cc2cc(F)ccc2n1Cc1cccc(F)c1 end up with in this test?
active

What classification did CCc1ccccc1N end up with in this test?
inactive

What classification did ClCC(Cl)CCl end up with in this test?
inactive

----------
test.details: APR_HepG2_P-H2AX_24hr: Apredica 24-hour HepG2 Assay for H2AX Phosphorylation (AID 2282920)
assay.context: high-content imaging, actives raise or lower the signal
The source made the active and inactive calls. How the source made its calls: active means hit-call score of the fitted dose curve at least 0.9, where 1 is the maximum; inactive means score below 0.9.
// one of 1 (active), -1 (inactive), no free text

Worked examples follow.
Cc1ccccc1N -1
CC(=O)[O][Hg][c]1ccccc1 1

What classification did C[C@]12CCC(=O)C[C@@H]1CC[C@@H]1[C@@H]2CC[C@]2(C)[C@@H](O)CC[C@@H]12 end up with in this test?
-1

What classification did O=C(Nc1ccc2[nH]ccc2c1)c1cc2cc(F)ccc2n1Cc1cccc(F)c1 end up with in this test?
1

What classification did C[C@@H]1C[C@@H]([C@H](O)CC2CC(=O)NC(=O)C2)C(=O)[C@@H](C)C1 end up with in this test?
-1

What classification did NC(=O)O end up with in this test?
1

What classification did CC(C)(OO)c1ccccc1 end up with in this test?
1
